Value source: PubChem BioAssay (EPA / NIEHS)

- measured on: Myc proto-oncogene protein (Homo sapiens)
- assay method text: ATG_Myc_CIS: Attagene CIS-FACTORIAL HepG2 Assay for human Myelocytomatosis (Myc) Proto-Oncogene Transcription Factor (AID 2282990)
- run conditions: HepG2, Attagene cis-reporter transcription factor activity; actives raise or lower the signal
Active and inactive are the calls of the source. Rule for the calls: active = hit-call score of the fitted dose curve at least 0.9, where 1 is the maximum; inactive = score below 0.9.
reported endpoint: AC50

Here is how some molecules turned out for AC50.
{"columns": ["smiles notation", "AC50"],
 "data": [
  ["COc1cnc(OC)n2nc(NS(=O)(=O)c3c(OCC(F)F)cccc3C(F)(F)F)nc12", "inactive"],
  ["CCOc1cc(Oc2ccc(C(F)(F)F)cc2Cl)ccc1[N+](=O)[O-]", "30.3 µM (active)"],
  ["CCCN(CCC)c1c([N+](=O)[O-])cc(S(N)(=O)=O)cc1[N+](=O)[O-]", "inactive"],
  ["C=CCC1=C(C)[C@@H](OC(=O)[C@@H]2[C@@H](C=C(C)C)C2(C)C)CC1=O", "inactive"]
]}

-- ask Consider the molecule shown here: O=C(Nc1ccccc1)Nc1ccnc(Cl)c1 What is its recorded AC50?
-- reply inactive

-- ask Which value of AC50 has been reported for CN(C)C(=S)SSC(=S)N(C)C in the records?
-- reply inactive
